# Organism: Rattus norvegicus
# experiment.description: Open TG-GATES - Regimen: Single
# Assay type: toxicity, organism-based, Sprague-Dawley
# Design: regimen Single, gender Male, age 6 weeks
# measurement.parameters: in vivo, po, 0 mg/kg, 6 h, tissue Kidney, route gavage, dose level Control
Hi there, I'd appreciate the recorded KIDNEY_TOTAL for every entry that follows.
Numbers only, in g.

These solved cases illustrate the format of a correct answer.
>>> test_result("Cn1cnc([N+](=O)[O-])c1Sc1ncnc2nc[nH]c12")
1.7
>>> test_result("COc1ccc(O)c(C(C)(C)C)c1.COc1ccc(O)cc1C(C)(C)C [BUTYLATED HYDROXYANISOLE]")
1.8
>>> test_result("O=C1NC(=O)C(c2ccccc2)(c2ccccc2)N1")
1.8

Go through the items and report each one's KIDNEY_TOTAL.
1. CS(=O)(=O)Nc1ccc([N+](=O)[O-])cc1Oc1ccccc1 [NIMESULIDE]
2. O=C1CN(/N=C/c2ccc(-c3ccc([N+](=O)[O-])cc3)o2)C(O)=N1
3. S=C=Nc1cccc2ccccc12 [1-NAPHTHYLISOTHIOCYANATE]
4. O=P1(N(CCCl)CCCl)NCCCO1 (configuration not stated) [CYCLOPHOSPHAMIDE ANHYDROUS]
5. CNCCC(Oc1ccc(C(F)(F)F)cc1)c1ccccc1.Cl (configuration not stated) [FLUOXETINE HYDROCHLORIDE]
6. Cc1cccc(Nc2cc(Cl)nc(SCC(=O)O)n2)c1C

Solution:
[1.7, 1.9, 2, 1.7, 2.1, 1.7]

Go through the items and report each one's KIDNEY_TOTAL.
1. C=CCO
2. COc1ccc(Cl)cc1C(=O)NCCc1ccc(S(=O)(=O)NC(=O)NC2CCCCC2)cc1 [GLYBURIDE]

Solution:
1. 1.9
2. 2

Exercise: What value of KIDNEY_TOTAL has been reported for the following compound? `Cc1cnc(NC(=O)C2=C(O)c3ccccc3S(=O)(=O)N2C)s1`
Solution: 2

###

# Species on record: Rattus norvegicus
# experiment.description: Open TG-GATES - Regimen: Single
# Assay type: toxicity, organism-based, Sprague-Dawley
# Parameters: regimen Single, gender Male, age 6 weeks
# measurement.parameters: in vivo, po, 0 mg/kg, 3 h, tissue Plasma, route gavage, dose level Control
quantity: RALB (g/dL)
Give bare numbers, in g/dL.

These solved cases illustrate the format of a correct answer.
>>> test_result("COc1ccc(Cl)cc1C(=O)NCCc1ccc(S(=O)(=O)NC(=O)NC2CCCCC2)cc1 [GLYBURIDE]")
3.5
>>> test_result("O=C1NC(=O)C(c2ccccc2)(c2ccccc2)N1 [PHENYTOIN]")
2.5
>>> test_result("CS(=O)(=O)Nc1ccc([N+](=O)[O-])cc1Oc1ccccc1 [NIMESULIDE]")
3.7

Go through the items and report each one's RALB.
1. COc1ccc(O)c(C(C)(C)C)c1.COc1ccc(O)cc1C(C)(C)C [BUTYLATED HYDROXYANISOLE]
2. S=C=Nc1cccc2ccccc12 [1-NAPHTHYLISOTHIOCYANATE]
3. C=CCO [ALLYL ALCOHOL]
4. CNCCC(Oc1ccc(C(F)(F)F)cc1)c1ccccc1.Cl (stereo unspecified) [FLUOXETINE HYDROCHLORIDE]
5. O=C1CN(/N=C/c2ccc(-c3ccc([N+](=O)[O-])cc3)o2)C(O)=N1 [DANTROLENE]
6. Cc1cccc(Nc2cc(Cl)nc(SCC(=O)O)n2)c1C [PIRINIXIC ACID]
7. Cn1cnc([N+](=O)[O-])c1Sc1ncnc2nc[nH]c12 [AZATHIOPRINE]

Solution:
2.6
3.4
3.2
4.1
3.6
2.6
2.9

Exercise: What value of RALB has been reported for the following compound? Cc1cnc(NC(=O)C2=C(O)c3ccccc3S(=O)(=O)N2C)s1 [MELOXICAM]
Solution: 3.4

###

# Species: Rattus norvegicus
# experiment.description: Open TG-GATES - Regimen: Daily Repeat
# Format: toxicity, organism-based, Sprague-Dawley
# Set-up: regimen Daily Repeat, gender Male, age 6 weeks
# measurement.parameters: in vivo, po, 0 mg/kg, […], tissue Blood, route gavage, dose level Control, time 28 day
quantity: MCV (fL)
Answers are plain numbers, in fL.

>>> test_result("O=C1CN(/N=C/c2ccc(-c3ccc([N+](=O)[O-])cc3)o2)C(O)=N1")
57.5

Go through the items and report each one's MCV.
1. COc1ccc(O)c(C(C)(C)C)c1.COc1ccc(O)cc1C(C)(C)C [BUTYLATED HYDROXYANISOLE]
2. C=CCO
3. Cn1c(=O)c2c(ncn2C)n(C)c1=O
4. Cc1cnc(NC(=O)C2=C(O)c3ccccc3S(=O)(=O)N2C)s1
5. COc1ccc(Cl)cc1C(=O)NCCc1ccc(S(=O)(=O)NC(=O)NC2CCCCC2)cc1 [GLYBURIDE]
6. Cc1cccc(Nc2cc(Cl)nc(SCC(=O)O)n2)c1C

Solution:
54.4
56.5
56.1
56.1
57.2
55.5

###

Hi there, I'd appreciate the recorded Lym for every entry that follows.
# Species: Rattus norvegicus
# experiment.description: Open TG-GATES - Regimen: Daily Repeat
# Type: toxicity, organism-based, Sprague-Dawley
# Design: regimen Daily Repeat, gender Male, age 6 weeks
# measurement.parameters: in vivo, po, 0 mg/kg, […], tissue Blood, route gavage, dose level Control, time 28 day
Give bare numbers, in %.

>>> test_result("O=C1NC(=O)C(c2ccccc2)(c2ccccc2)N1")
83.4
>>> test_result("Cn1cnc([N+](=O)[O-])c1Sc1ncnc2nc[nH]c12")
84.8
>>> test_result("Cc1cccc(Nc2cc(Cl)nc(SCC(=O)O)n2)c1C")
75

Go through the items and report each one's Lym.
1. C=CCO
2. O=C1CN(/N=C/c2ccc(-c3ccc([N+](=O)[O-])cc3)o2)C(O)=N1
3. Cn1c(=O)c2c(ncn2C)n(C)c1=O
4. Cc1cnc(NC(=O)C2=C(O)c3ccccc3S(=O)(=O)N2C)s1
5. COc1ccc(O)c(C(C)(C)C)c1.COc1ccc(O)cc1C(C)(C)C [BUTYLATED HYDROXYANISOLE]
6. O=P1(N(CCCl)CCCl)NCCCO1 (stereo unspecified) [CYCLOPHOSPHAMIDE ANHYDROUS]

Solution:
[81.8, 84, 81, 87, 78.1, 82.4]

Go through the items and report each one's Lym.
1. CS(=O)(=O)Nc1ccc([N+](=O)[O-])cc1Oc1ccccc1 [NIMESULIDE]
2. COc1ccc(Cl)cc1C(=O)NCCc1ccc(S(=O)(=O)NC(=O)NC2CCCCC2)cc1 [GLYBURIDE]

Solution:
1: 80.6; 2: 83.8

###

Hi there, I'd appreciate the recorded MCHC for every entry that follows.
# Species: Rattus norvegicus
# experiment.description: Open TG-GATES - Regimen: Daily Repeat
# Assay type: toxicity, organism-based, Sprague-Dawley
# Set-up: regimen Daily Repeat, gender Male, age 6 weeks
# measurement.parameters: in vivo, po, 0 mg/kg, […], tissue Blood, route gavage, dose level Control, time 28 day
One number for each entry, in %.

These solved cases illustrate the format of a correct answer.
>>> test_result("CS(=O)(=O)Nc1ccc([N+](=O)[O-])cc1Oc1ccccc1 [NIMESULIDE]")
33.9
>>> test_result("O=C1CN(/N=C/c2ccc(-c3ccc([N+](=O)[O-])cc3)o2)C(O)=N1")
33.9
>>> test_result("Cn1cnc([N+](=O)[O-])c1Sc1ncnc2nc[nH]c12")
34.3
>>> test_result("O=P1(N(CCCl)CCCl)NCCCO1 (stereo unspecified) [CYCLOPHOSPHAMIDE ANHYDROUS]")
34
>>> test_result("Cc1cccc(Nc2cc(Cl)nc(SCC(=O)O)n2)c1C")
35.6

Go through the items and report each one's MCHC.
1. COc1ccc(O)c(C(C)(C)C)c1.COc1ccc(O)cc1C(C)(C)C [BUTYLATED HYDROXYANISOLE]
2. COc1ccc(Cl)cc1C(=O)NCCc1ccc(S(=O)(=O)NC(=O)NC2CCCCC2)cc1 [GLYBURIDE]
3. C=CCO
4. O=C1NC(=O)C(c2ccccc2)(c2ccccc2)N1

Solution:
[35.9, 35.1, 34.7, 35.7]

Go through the items and report each one's MCHC.
1. Cc1cnc(NC(=O)C2=C(O)c3ccccc3S(=O)(=O)N2C)s1
2. Cn1c(=O)c2c(ncn2C)n(C)c1=O

Solution:
1: 34.4; 2: 34.6

###

# Organism: Rattus norvegicus
# experiment.description: Open TG-GATES - Regimen: Single
# Format: toxicity, organism-based, Sprague-Dawley
# Set-up: regimen Single, gender Male, age 6 weeks
# measurement.parameters: in vivo, po, 0 mg/kg, 9 h, tissue Plasma, route gavage, dose level Control
Hi there, I'd appreciate the recorded AST for every entry that follows.
Numbers only, in IU/L.

These solved cases illustrate the format of a correct answer.
>>> test_result("O=C1NC(=O)C(c2ccccc2)(c2ccccc2)N1")
68.8
>>> test_result("Cn1cnc([N+](=O)[O-])c1Sc1ncnc2nc[nH]c12")
72.8
>>> test_result("COc1ccc(Cl)cc1C(=O)NCCc1ccc(S(=O)(=O)NC(=O)NC2CCCCC2)cc1 [GLYBURIDE]")
61.6

Go through the items and report each one's AST.
1. Cc1cccc(Nc2cc(Cl)nc(SCC(=O)O)n2)c1C
2. Cc1cnc(NC(=O)C2=C(O)c3ccccc3S(=O)(=O)N2C)s1
3. COc1ccc(O)c(C(C)(C)C)c1.COc1ccc(O)cc1C(C)(C)C [BUTYLATED HYDROXYANISOLE]
4. O=C1CN(/N=C/c2ccc(-c3ccc([N+](=O)[O-])cc3)o2)C(O)=N1
5. CS(=O)(=O)Nc1ccc([N+](=O)[O-])cc1Oc1ccccc1 [NIMESULIDE]
6. S=C=Nc1cccc2ccccc12 [1-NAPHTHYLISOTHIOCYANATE]
7. C=CCO

Solution:
[67.4, 62.6, 66.6, 73.2, 59.8, 57.4, 62.2]
